target.entity: the molecule itself
experiment.notes: cross-linking; in vitro BMOE (1 mM) cysteine cross-linking, 10 uM ParB, with or without 1 mM CTP or CTPγS and 1 uM 40-bp parS DNA, 150 mM NaCl, 50 mM tris-HCl pH 7.5, 5 mM MgCl2, room temperature; SDS-PAGE, Coomassie

protein	binding result
ParB(R105C, H133C) (natural protein, B. subtilis, UniProt P26497 1-282, looked up, ParB, B. subtilis, untagged recombinant protein with cysteines at the N-M interface; source: E. coli BL21-Gold (DE3), purified (ammonium sulfate, heparin, HiTrap SP, Superdex 200)) MAKGLGKGINALFNQVDLSEETVEEIKIADLRPNPYQPRKHFDDEALAELKESVLQHGILQPLIVRKSLKGYDIVAGERRFRAAKLAGLDTVPAIVRELSEALMCEIALLENLQREDLSPLEEAQAYDSLLKCLDLTQEQLAKRLGKSRPHIANHLRLLTLPENIQQLIAEGTLSMGHGRTLLGLKNKNKLEPLVQKVIAEQLNVRQLEQLIQQLNQNVPRETKKKEPVKDAVLKERESYLQNYFGTTVNIKRQKKKGKIEIEFFSNEDLDRILELLSERES	binds
ParB(T22C, E111Q) (natural protein, B. subtilis, UniProt P26497 1-282, looked up, ParB, B. subtilis, untagged recombinant protein, CTP hydrolysis-defective mutant with the T22C reporter cysteine; source: E. coli BL21-Gold (DE3), purified (ammonium sulfate, heparin, HiTrap SP, Superdex 200)) MAKGLGKGINALFNQVDLSEECVEEIKIADLRPNPYQPRKHFDDEALAELKESVLQHGILQPLIVRKSLKGYDIVAGERRFRAAKLAGLDTVPAIVRELSEALMREIALLQNLQREDLSPLEEAQAYDSLLKHLDLTQEQLAKRLGKSRPHIANHLRLLTLPENIQQLIAEGTLSMGHGRTLLGLKNKNKLEPLVQKVIAEQLNVRQLEQLIQQLNQNVPRETKKKEPVKDAVLKERESYLQNYFGTTVNIKRQKKKGKIEIEFFSNEDLDRILELLSERES	binds
ParB(A102C, H133C) (natural protein, B. subtilis, UniProt P26497 1-282, looked up, ParB, B. subtilis, untagged recombinant protein with cysteines at the N-M interface; source: E. coli BL21-Gold (DE3), purified (ammonium sulfate, heparin, HiTrap SP, Superdex 200)) MAKGLGKGINALFNQVDLSEETVEEIKIADLRPNPYQPRKHFDDEALAELKESVLQHGILQPLIVRKSLKGYDIVAGERRFRAAKLAGLDTVPAIVRELSECLMREIALLENLQREDLSPLEEAQAYDSLLKCLDLTQEQLAKRLGKSRPHIANHLRLLTLPENIQQLIAEGTLSMGHGRTLLGLKNKNKLEPLVQKVIAEQLNVRQLEQLIQQLNQNVPRETKKKEPVKDAVLKERESYLQNYFGTTVNIKRQKKKGKIEIEFFSNEDLDRILELLSERES	binds

Value source: paper PMC8494293
